All figures here come from ChEMBL document CHEMBL4359841.

# Tested on: Staphylococcus aureus
# assay_remarks: Inhibition of FabB/FabF in methicillin-resistant Staphylococcus aureus assessed as antibacterial activity after 16 hrs by agar dilution method
For each record, write down the corresponding MIC.
Numbers only, in µg/mL.

Answered examples (5):
# structure_notation, numeric_value
rows = [
    ("C[C@]12C[C@@]34C=C(Sc5cccc(I)c5)C(=O)[C@@](C)(CCC(=O)Nc5c(O)ccc(C(=O)O)c5O)[C@@H]3[C@H](C[C@@H]1C4)O2", 0.5),
    ("Cc1ccc(SC2=C[C@]34C[C@H]5C[C@H](O[C@@]5(C)C3)[C@H]4[C@](C)(CCC(=O)Nc3c(O)ccc(C(=O)O)c3O)C2=O)cc1", 0.25),
    ("CC(=O)NC[C@H]1CN(c2ccc(N3CCOCC3)c(F)c2)C(=O)O1", 1),
    ("C[C@]12C[C@@]34C=C(Sc5ccccn5)C(=O)[C@@](C)(CCC(=O)Nc5c(O)ccc(C(=O)O)c5O)[C@@H]3[C@H](C[C@@H]1C4)O2", 2),
    ("C[C@]12C[C@@]34C=C(SCc5ccccc5)C(=O)[C@@](C)(CCC(=O)Nc5c(O)ccc(C(=O)O)c5O)[C@@H]3[C@H](C[C@@H]1C4)O2", 0.5),
]

# next compound below
Fill in reported MIC for this entry: C[C@]12C[C@@]34C=C(Sc5cccc(C#Cc6ccccn6)c5)C(=O)[C@@](C)(CCC(=O)Nc5c(O)ccc(C(=O)O)c5O)[C@@H]3[C@H](C[C@@H]1C4)O2 0.5

---

For each record, write down the corresponding MIC.
# System: Staphylococcus aureus
# assay_remarks: Inhibition of FabB/FabF in Staphylococcus aureus ATCC 29213 assessed as antibacterial activity after 16 hrs by agar dilution method
Give bare numbers, in µg/mL.

Answered examples (2):
# structure_notation, numeric_value
rows = [
    ("C[C@]12C[C@@]34C=C(Sc5cccc(C#CC6(O)CCCCC6)c5)C(=O)[C@@](C)(CCC(=O)Nc5c(O)ccc(C(=O)O)c5O)[C@@H]3[C@H](C[C@@H]1C4)O2", 0.25),
    ("C[C@]12C[C@@]34C=C(Sc5ccccn5)C(=O)[C@@](C)(CCC(=O)Nc5c(O)ccc(C(=O)O)c5O)[C@@H]3[C@H](C[C@@H]1C4)O2", 2),
]

Provide MIC, tested on Staphylococcus aureus, for C[C@]12C[C@@]34C=CC(=O)[C@@](C)(CCC(=O)Nc5c(O)ccc(C(=O)O)c5O)[C@@H]3[C@H](C[C@@H]1C4)O2 . 1

---

# Test system: Staphylococcus aureus
# assay_remarks: Inhibition of FabB/FabF in methicillin-sensitive Staphylococcus aureus assessed as antibacterial activity after 16 hrs by agar dilution method
reported_property: MIC
Numeric answer plus unit only.

Answered examples (6):
# structure_notation, MIC
rows = [
    ("C[C@]12C[C@@]34C=C(Sc5cccc(I)c5)C(=O)[C@@](C)(CCC(=O)Nc5c(O)ccc(C(=O)O)c5O)[C@@H]3[C@H](C[C@@H]1C4)O2", "0.5 µg/mL"),
    ("C[C@]12C[C@@]34C=C(Sc5ccc(I)cc5)C(=O)[C@@](C)(CCC(=O)Nc5c(O)ccc(C(=O)O)c5O)[C@@H]3[C@H](C[C@@H]1C4)O2", "0.25 µg/mL"),
    ("Cc1ccc(SC2=C[C@]34C[C@H]5C[C@H](O[C@@]5(C)C3)[C@H]4[C@](C)(CCC(=O)Nc3c(O)ccc(C(=O)O)c3O)C2=O)cc1", "0.25 µg/mL"),
    ("C[C@]12C[C@@]34C=C(Sc5cccc(C#CC6(O)CCCCC6)c5)C(=O)[C@@](C)(CCC(=O)Nc5c(O)ccc(C(=O)O)c5O)[C@@H]3[C@H](C[C@@H]1C4)O2", "0.25 µg/mL"),
    ("C[C@]12C[C@]34C[C@H]1C[C@H](O2)[C@H]3[C@](C)(CCC(=O)Nc1c(O)ccc(C(=O)O)c1O)C(=O)[C@@H]1O[C@@H]14", "16 µg/mL"),
    ("C[C@]12C[C@@]34C=CC(=O)[C@@](C)(CCC(=O)Nc5c(O)ccc(C(=O)O)c5O)[C@@H]3[C@H](C[C@@H]1C4)O2", "0.5 µg/mL"),
]

# next compound below
Provide MIC, tested on Staphylococcus aureus, for C[C@]12C[C@@]34C=C(Sc5ccc(F)cc5)C(=O)[C@@](C)(CCC(=O)Nc5c(O)ccc(C(=O)O)c5O)[C@@H]3[C@H](C[C@@H]1C4)O2 . 0.5 µg/mL
